B1: WEE1 (parent)
chain: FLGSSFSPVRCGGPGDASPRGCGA

variants of: B1; test: protein stability index of a GFP-peptide fusion (GPS, HEK-293T) (PSI 1-6); higher = more stable; settings: c terminus: a fixed tail appended;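 further: lentivirally expressed fusions sorted by FACS into six bins by GFP to DsRed ratio, PSI derived from sequencing read proportions per bin multiplied by bin number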
Parameter protein stability index: see the listing below.
Would you mind answering with just the numeric figure?

# query_sequence, obs_value
rows = [
    ("FLGSRFSPVRCGGPGDASPRGCGA", 1.63),
    ("FLGSSFSPVLCGGPGDASPRGCGA", 2.52),
    ("FLGSSFSPVRCGGPGDADPRGCGA", 2.16),
    ("FLGSSFSPVECGGPGDASPRGCGA", 3.27),
    ("FLGSSFMPVRCGGPGDASPRGCGA", 2.48),
]

input: Any idea what protein stability index was measured for FLGSAFSPVRCGGPGDASPRGCGA ?
output: 1.98

input: Any idea what protein stability index was measured for FLGSPFSPVRCGGPGDASPRGCGA ?
output: 2.17

input: Any idea what protein stability index was measured for FLGSSFSGVRCGGPGDASPRGCGA ?
output: 1.81

input: Any idea what protein stability index was measured for FLGSSFSPVFCGGPGDASPRGCGA ?
output: 2.95
